Target: E3 ubiquitin-protein ligase TRIM33 (Homo sapiens)
Sequence (Q9UPN9 whole entry): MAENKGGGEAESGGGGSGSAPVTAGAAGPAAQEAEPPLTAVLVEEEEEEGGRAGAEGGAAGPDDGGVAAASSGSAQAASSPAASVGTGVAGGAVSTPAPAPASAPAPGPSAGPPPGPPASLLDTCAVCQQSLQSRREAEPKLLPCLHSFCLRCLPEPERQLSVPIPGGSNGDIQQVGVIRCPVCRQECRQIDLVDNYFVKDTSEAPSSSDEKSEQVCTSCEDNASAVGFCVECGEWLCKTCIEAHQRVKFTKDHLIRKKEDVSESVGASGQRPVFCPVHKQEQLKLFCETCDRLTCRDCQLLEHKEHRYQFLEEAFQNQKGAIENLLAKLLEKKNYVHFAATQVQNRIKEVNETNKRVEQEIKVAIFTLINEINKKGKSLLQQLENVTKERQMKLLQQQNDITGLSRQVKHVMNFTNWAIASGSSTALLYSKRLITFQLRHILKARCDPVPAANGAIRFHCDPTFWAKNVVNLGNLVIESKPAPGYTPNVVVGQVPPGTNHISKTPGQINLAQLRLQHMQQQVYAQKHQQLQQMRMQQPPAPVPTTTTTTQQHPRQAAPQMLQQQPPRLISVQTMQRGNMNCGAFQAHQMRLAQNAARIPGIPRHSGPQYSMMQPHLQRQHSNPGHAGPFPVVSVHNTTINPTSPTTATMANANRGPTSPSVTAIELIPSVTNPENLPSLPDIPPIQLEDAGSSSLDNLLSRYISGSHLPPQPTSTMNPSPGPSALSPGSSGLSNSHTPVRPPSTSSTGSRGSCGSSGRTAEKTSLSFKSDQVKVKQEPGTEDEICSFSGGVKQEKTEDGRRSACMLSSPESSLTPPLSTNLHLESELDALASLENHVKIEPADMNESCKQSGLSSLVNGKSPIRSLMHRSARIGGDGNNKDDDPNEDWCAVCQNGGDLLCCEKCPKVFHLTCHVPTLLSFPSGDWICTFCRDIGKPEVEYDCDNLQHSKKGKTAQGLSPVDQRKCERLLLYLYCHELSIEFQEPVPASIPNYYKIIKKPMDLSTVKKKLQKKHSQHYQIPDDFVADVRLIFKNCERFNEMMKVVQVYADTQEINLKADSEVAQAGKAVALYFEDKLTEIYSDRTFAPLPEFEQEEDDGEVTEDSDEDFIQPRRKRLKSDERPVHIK
Experiment: TRIM33(PHD,Bromo.) DiscoverX BROMOscan
parameter.measured: pKd
// pKd is dimensionless: -log10 of concentration (M)

Query: pKd; subject: CC(=O)Nc1c(F)cc(C(=O)N[C@H]2CC[C@H](O)CC2)cc1O[C@@H](C)c1ccccc1 [GSK046]
4.52
